Target: Bifunctional protein GlmU (Mycobacterium tuberculosis (strain ATCC 25618 / H37Rv))
Experiment: inhibition of mycobacterial GlmU enzyme – biochemical, glucosamine-1-phosphate acetyltransferase (AID 1376);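 note: 0% = complete reaction with vehicle and 100% = reaction without substrate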
Settings: M. tuberculosis GlmU acetyltransferase enzyme assay; hits give high values;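 tested at 30 µM in the primary screen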
Hit rate of the full screen: of about 220,000 compounds, about 530 (0.24%) were called active. The list comes from a sample in which actives are over-represented; it also holds close analogues and randomly drawn compounds. Results with a measured potency or affinity are listed apart.
Readout Kind: inhibition (%)

INSERT INTO measurements (compound_smiles, readout_kind, reported_value) VALUES
  ('Cc1cc(/C=C2\SC(=S)NC2=O)c(C)n1C', 'inhibition', 5.92),
  ('CCn1ncc(/C=C2/SC(=S)NC2=O)c1C', 'inhibition', 11.3),
  ('Nc1n[nH]c(C2CCCCC2)n1', 'inhibition', -2.96),
  ('Cc1ccc(C(=O)N/N=C\c2ccc(-c3ccc(Cl)c(Cl)c3)o2)cn1', 'inhibition', -1.63);

----------
Target: Bifunctional protein GlmU (Mycobacterium tuberculosis (strain ATCC 25618 / H37Rv)) (UniProt P9WMN3)
Sequence (P9WMN3 whole entry, looked up): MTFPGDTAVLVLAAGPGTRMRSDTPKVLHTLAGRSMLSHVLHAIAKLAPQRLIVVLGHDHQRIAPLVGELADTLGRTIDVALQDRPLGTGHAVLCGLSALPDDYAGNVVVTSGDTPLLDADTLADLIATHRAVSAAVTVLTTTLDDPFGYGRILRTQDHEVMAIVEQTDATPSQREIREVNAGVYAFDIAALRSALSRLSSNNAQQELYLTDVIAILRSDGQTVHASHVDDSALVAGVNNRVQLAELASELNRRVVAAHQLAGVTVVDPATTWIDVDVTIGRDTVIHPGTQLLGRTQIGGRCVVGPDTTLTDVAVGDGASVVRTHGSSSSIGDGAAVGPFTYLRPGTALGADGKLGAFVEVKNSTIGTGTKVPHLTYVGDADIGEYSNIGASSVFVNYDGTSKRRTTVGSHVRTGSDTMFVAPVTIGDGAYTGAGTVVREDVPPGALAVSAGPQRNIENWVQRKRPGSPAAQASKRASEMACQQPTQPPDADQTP
Test: inhibition of mycobacterial GlmU enzyme – biochemical, glucosamine-1-phosphate acetyltransferase (AID 1376);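 note: 0% = complete reaction with vehicle and 100% = reaction without substrate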
Conditions: M. tuberculosis GlmU acetyltransferase enzyme assay; hits give high values;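 tested at 30 µM in the primary screen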
Hit rate of the full screen: of about 220,000 compounds, about 530 (0.24%) were called active. This excerpt belongs to a sample that is enriched for actives. Potency and affinity values are given separately.
Readout Kind: inhibition (%)

INSERT INTO results (compound, reported_value) VALUES
  ('CNc1nc(C)nc(-n2nc(C)cc2C)n1', 13.6),
  ('COc1cc2c(cc1OC)C(SC)=NC(C)(C)C2', 8.72),
  ('COc1ccccc1C1C(C(=O)NCc2ccccc2)=C(C)Nc2ncnn21 (centres undefined)', -0.29),
  ('Cc1cc(OCCCC(=O)NC2=NCCS2)ccc1Cl', -5.02),
  ('CC(=O)N1C(Nc2ccc(Cl)cc2)CCN1c1ccccc1 (centres undefined)', 13.2),
  ('Cc1cc(C)n(-c2nc(C)nc(NCc3ccccc3)n2)n1', -4.13),
  ('COc1ccc(F)cc1S(=O)(=O)Nc1ccc2c(c1)OCCO2', 2.41),
  ('CCn1c(SCC(=O)N2CCc3ccccc32)nnc1-c1c[nH]c2ccccc12', 6.94),
  ('O=[N+]([O-])c1cccnc1Oc1cccnc1', 6.22),
  ('O=C(CCN1CCN(c2ccccc2)CC1)Nc1ccc(Cl)cc1', 7.38),
  ('O=c1c2ccccc2nc(N2CCCC2)n1-c1ccccc1', 13.9),
  ('COc1cc2c(cc1O)C(SC)=NC(C)(C)C2', 14.9),
  ('CN1CCN(c2nc3ccccc3c(=O)n2-c2ccccc2)CC1', 2.07),
  ('O=C(CN1C(=O)CCC1=O)NNc1ccc2ccccc2c1', -8.95),
  ('O=C(c1ccccc1)N1CCN=C1c1ccccc1', 3.08),
  ('COc1cc2c(cc1OC)C(SC)=NC1(CCCC1)C2', 2.45),
  ('COc1cc(C(=O)N2CCN=C2c2ccccc2)cc(OC)c1OC', -4.46),
  ('OCC#CC[N+]1(CC#Cc2ccccc2)CCOCC1', -6.73),
  ('CC(Nc1nc(-c2ccc3c(c2)NC(=O)CO3)cs1)c1ccccc1 (centres undefined)', -7.09);

Where these numbers come from: PubChem BioAssay AID1376
